As shown below, each of these variants has a reported self-cleavage kobs at 40 uM GlcN6P value.
B1: glmS ribozyme (parent)
chain: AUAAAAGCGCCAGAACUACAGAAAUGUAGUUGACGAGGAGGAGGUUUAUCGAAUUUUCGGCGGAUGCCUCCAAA

Variants of: B1
Test: self-cleavage kobs at 40 uM GlcN6P; higher = faster cleavage; RNA array
Details: with glucosamine-6-phosphate
Variants at the floor of the assay were thinned out.
assay.metric: self-cleavage kobs at 40 uM GlcN6P

variant | result.value
A14C U45G A52C G63A | < 1e-05 s⁻¹
U47G C61U | < 1e-05 s⁻¹
G63A C68U | < 1e-05 s⁻¹
A15C U54A | 0.000164 s⁻¹
G29C C34A | < 1e-05 s⁻¹
G37U G41C | < 1e-05 s⁻¹
A6G G60A G62C | < 1e-05 s⁻¹
G35C U56G | < 1e-05 s⁻¹
C10A U47G G63C C68G | 9.61e-05 s⁻¹
U55C U65G | 4.04e-05 s⁻¹
G7U G35U A39U | < 1e-05 s⁻¹
A15G | 0.00118 s⁻¹
A39G C70U C71U | 0.000107 s⁻¹
C11U G40C U46G | < 1e-05 s⁻¹
A36G C50G | 3.66e-05 s⁻¹
A6G A14U U31A U57G | < 1e-05 s⁻¹
A14C A53U | 7.8e-05 s⁻¹
G9C C70U | < 1e-05 s⁻¹
G35C U46G A48G U65C C68A | < 1e-05 s⁻¹
G13U C16U | 4.83e-05 s⁻¹
G32C C34U | < 1e-05 s⁻¹
G7C G62U | < 1e-05 s⁻¹
U30G C50A | < 1e-05 s⁻¹
C16G A48G C68U | < 1e-05 s⁻¹
G13U A42C A53C C68A | < 1e-05 s⁻¹
U47A U55G | 0.000473 s⁻¹
G13U G60U C68U | < 1e-05 s⁻¹
G51U G62U | < 1e-05 s⁻¹
A15C U49C | < 1e-05 s⁻¹
G9U G60U C71G | < 1e-05 s⁻¹
A36C G37U G51U | < 1e-05 s⁻¹
A14C G60U C71G | < 1e-05 s⁻¹
A12C A42G | 0.00118 s⁻¹
A39U A53C | 9.69e-05 s⁻¹
C50G G63A C70G | 0.000105 s⁻¹
A6G C70A | < 1e-05 s⁻¹
C8G U31C A39G | < 1e-05 s⁻¹
G9C G13U | < 1e-05 s⁻¹
G35C G38U C50G C68A C70A | 0.000136 s⁻¹
C50U U57C | < 1e-05 s⁻¹
G32C G37C A48U G59C | < 1e-05 s⁻¹
U31G U69A | 2.79e-05 s⁻¹
C8U G9C G35U C61G | < 1e-05 s⁻¹
A6G G29C U45G C70G | < 1e-05 s⁻¹
G29U G60A | < 1e-05 s⁻¹
C10G G40A | < 1e-05 s⁻¹
A33G U45A C50G U54G G60A C67A | 0.000354 s⁻¹
G29C G60U C61A | < 1e-05 s⁻¹
A48C G51A | < 1e-05 s⁻¹
C8A A36G | < 1e-05 s⁻¹
C11U U47A A52C | < 1e-05 s⁻¹
A42C G63A | < 1e-05 s⁻¹
G13U C50G C61G G62A U65G C68U | 9.2e-05 s⁻¹
U2C C11U G40A U45G | < 1e-05 s⁻¹
G35A U56C A64U | < 1e-05 s⁻¹
G41U A42U C70A | 0.000142 s⁻¹
A14C G35U | < 1e-05 s⁻¹
U30A A33G A48C C67A | < 1e-05 s⁻¹
C34G A42U | < 1e-05 s⁻¹
A33U A48G A52U | < 1e-05 s⁻¹
G60C U69G | < 1e-05 s⁻¹
C16A C34U | < 1e-05 s⁻¹
C58A G59U G60U | < 1e-05 s⁻¹
U54A U65A | 0.000105 s⁻¹
A53G G60U | < 1e-05 s⁻¹
A15U A33C A36C G37U G40C C58U | < 1e-05 s⁻¹
C11A G41U | < 1e-05 s⁻¹
C8A U57A G63A | < 1e-05 s⁻¹
G51U A52C | < 1e-05 s⁻¹
C11G G44U A48C C50A G59U G62C | < 1e-05 s⁻¹
G29A U30A | 2.98e-05 s⁻¹
U54C C71A | 0.000112 s⁻¹
U31G C34U G59A | < 1e-05 s⁻¹
G37C G43A C61A | < 1e-05 s⁻¹
U31A G41U | 2.67e-05 s⁻¹
U30C U47C C58A U65A | < 1e-05 s⁻¹
A14U G29U | 2.02e-05 s⁻¹
C50G C71G | 0.000109 s⁻¹
G9U C61A | 4.72e-05 s⁻¹
C8A A15C | < 1e-05 s⁻¹
G32A G40U C67G | < 1e-05 s⁻¹
G29C A33G G38A G40C G43C | < 1e-05 s⁻¹
C11G G62C A64G C68G | < 1e-05 s⁻¹
A6C G40C | < 1e-05 s⁻¹
U31C A48U C50A A53C U65G G66A | < 1e-05 s⁻¹
U31G A52U G62U C67G | < 1e-05 s⁻¹
C11U C61G U69C | 9.12e-05 s⁻¹
G37C G41U | < 1e-05 s⁻¹
G37C C68U | < 1e-05 s⁻¹
G29C C50G | 5.44e-05 s⁻¹
U31A G43U | < 1e-05 s⁻¹
